Sourced from the supplement of paper PMC9732359

experiment: protein stability index of a GFP-peptide fusion (yeast GPS) (PSI 1-4); higher = more stable; sorted into four equal gates, so the index is relative within each strain; settings: ubr1∆
observed_property: protein stability index
API note: the answer field is a bare number with no unit suffix.

[
  {
    "entry_sequence": "DFLRYINIKYLRLDGHT [SNF2]",
    "protein stability index": 1.65
  },
  {
    "entry_sequence": "QGGFYKQQDAEELFTQL [UBP6]",
    "protein stability index": 3.21
  },
  {
    "entry_sequence": "ANSSTIRVTNSFALPFE [RPN8]",
    "protein stability index": 3.14
  },
  {
    "entry_sequence": "KLVLAARIIAAIPNPED [RPS0A]",
    "protein stability index": 2.5
  },
  {
    "entry_sequence": "AYLLLVQGGNAAPSAAD [RPP2B]",
    "protein stability index": 2.45
  },
  {
    "entry_sequence": "DNYFNLQLNEAEEFVAG [SMX3]",
    "protein stability index": 3.12
  },
  {
    "entry_sequence": "QFLRLIFVSILSDRANK [ARP9]",
    "protein stability index": 1.2
  }
]

Now take the following sequence into account.
Reported protein stability index for TNENGETDDNIETVMTQ [SRB4] was 2.5
